Tested on: normal primary NK cells, pool 1 (3 donors) (IL-2 2.5 ng/mL);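 note: normalised to DMSO-only wells as negative and benzethonium chloride as positive control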
Assay: percent inhibition of viability; higher = more inhibition
Conditions: 72 h; 100 nM
Reported percent inhibition of viability values follow for various molecules
measure-name: percent inhibition of viability (%)

molecule="CO[C@@H]1[C@H](N(C)C(=O)c2ccccc2)C[C@H]2O[C@]1(C)n1c3ccccc3c3c4c(c5c6ccccc6n2c5c31)C(=O)NC4 [Midostaurin] (max concentration tested 10000 nM)" measure_name="percent inhibition of viability" numeric_readout=25.8
molecule="Cc1ccc(NC(=O)c2ccc(CN3CC[C@H](N(C)C)C3)c(C(F)(F)F)c2)cc1Nc1nccc(-c2cncnc2)n1 [Bafetinib] (max concentration tested 1000 nM)" measure_name="percent inhibition of viability" numeric_readout=1.21
molecule="CC(C)C(=O)Nc1ccc([N+](=O)[O-])c(C(F)(F)F)c1 [Flutamide] (max concentration tested 10000 nM)" measure_name="percent inhibition of viability" numeric_readout=-4.34
molecule="CC(C)C[C@H](NC(=O)[C@H](CCc1ccccc1)NC(=O)CN1CCOCC1)C(=O)N[C@@H](Cc1ccccc1)C(=O)N[C@@H](CC(C)C)C(=O)[C@@]1(C)CO1 [Carfilzomib] (max concentration tested 1000 nM)" measure_name="percent inhibition of viability" numeric_readout=99.6
molecule="O=C(CCBr)N1CCN(C(=O)CCBr)CC1 [Pipobroman] (max concentration tested 10000 nM)" measure_name="percent inhibition of viability" numeric_readout=11.8

----------
Test system: normal NK cells expanded with K562-aAPC
Assay: percent inhibition of viability; higher = more inhibition
Conditions: 72 h; IL-2 2.5 ng/mL; 1 nM
Measured percent inhibition of viability accompanies every entry in the list below.
measure-name: percent inhibition of viability (%)

compound="COc1cc2ncnc(Oc3cccc(NC(=O)Nc4cc(C(C)(C)C(F)(F)F)on4)c3)c2cc1OC (max concentration tested 10000 nM)" assayed_system="normal NK cells expanded with K562-aAPC" measure_name="percent inhibition of viability" units_text=% numeric_readout=-1.51
compound="CO[C@H]1C[C@@H]2CC[C@@H](C)[C@@](O)(O2)C(=O)C(=O)N2CCCC[C@H]2C(=O)O[C@H]([C@H](C)C[C@@H]2CC[C@@H](O)[C@H](OC)C2)CC(=O)[C@H](C)/C=C(\\C)[C@@H](O)[C@@H](OC)C(=O)[C@H](C)C[C@H](C)/C=C/C=C/C=C/1C [Sirolimus] (max concentration tested 100 nM)" assayed_system="normal NK cells expanded with K562-aAPC" measure_name="percent inhibition of viability" units_text=% numeric_readout=3.81
compound="Cc1nc(Nc2ncc(C(=O)Nc3c(C)cccc3Cl)s2)cc(N2CCN(CCO)CC2)n1 [Dasatinib] (max concentration tested 1000 nM)" assayed_system="normal NK cells expanded with K562-aAPC" measure_name="percent inhibition of viability" units_text=% numeric_readout=4.04
compound="CCC/C=C/C=C/C(=O)O[C@H]1/C(=C/C(=O)OC)C[C@H]2C[C@H]([C@@H](C)O)OC(=O)C[C@H](O)C[C@@H]3C[C@H](OC(C)=O)C(C)(C)[C@](O)(C[C@@H]4C/C(=C/C(=O)OC)C[C@H](/C=C/C(C)(C)[C@]1(O)O2)O4)O3 [Bryostatin 1] (max concentration tested 100 nM)" assayed_system="normal NK cells expanded with K562-aAPC" measure_name="percent inhibition of viability" units_text=% numeric_readout=-55.2
compound="CO[C@@]12[C@H](COC(N)=O)C3=C(C(=O)C(C)=C(N)C3=O)N1C[C@@H]1N[C@@H]12 [Mitomycin C] (max concentration tested 10000 nM)" assayed_system="normal NK cells expanded with K562-aAPC" measure_name="percent inhibition of viability" units_text=% numeric_readout=-6.75
compound="CCN(c1cc(-c2ccc(CN3CCOCC3)cc2)cc(C(=O)NCc2c(C)cc(C)[nH]c2=O)c1C)C1CCOCC1 [Tazemetostat] (max concentration tested 10000 nM)" assayed_system="normal NK cells expanded with K562-aAPC" measure_name="percent inhibition of viability" units_text=% numeric_readout=-1.54
compound="O=C(NC1CCNCC1)c1n[nH]cc1NC(=O)c1c(Cl)cccc1Cl [AT7519] (max concentration tested 10000 nM)" assayed_system="normal NK cells expanded with K562-aAPC" measure_name="percent inhibition of viability" units_text=% numeric_readout=-3.7
compound="O=C(O)c1ccc2c(c1)nc(Nc1cccc(Cl)c1)c1ccncc12 [Silmitasertib] (max concentration tested 10000 nM)" assayed_system="normal NK cells expanded with K562-aAPC" measure_name="percent inhibition of viability" units_text=% numeric_readout=6.72
compound="CO[C@H]1/C=C\\C=C(/C)C(=O)NC2=CC(=O)C(NCCN(C)C)=C(C[C@@H](C)C[C@H](OC)[C@H](O)[C@@H](C)/C=C(\\C)[C@@H]1OC(N)=O)C2=O [Alvespimycin] (max concentration tested 1000 nM)" assayed_system="normal NK cells expanded with K562-aAPC" measure_name="percent inhibition of viability" units_text=% numeric_readout=-4.9
compound="Cc1c(C(=O)Nc2ccc(N3C[C@@H](C)O[C@@H](C)C3)nc2)cccc1-c1ccc(OC(F)(F)F)cc1 [Sonidegib] (max concentration tested 10000 nM)" assayed_system="normal NK cells expanded with K562-aAPC" measure_name="percent inhibition of viability" units_text=% numeric_readout=-1.35
compound="CCNC(=O)c1noc(-c2cc(C(C)C)c(O)cc2O)c1-c1ccc(CN2CCOCC2)cc1 [Luminespib] (max concentration tested 1000 nM)" assayed_system="normal NK cells expanded with K562-aAPC" measure_name="percent inhibition of viability" units_text=% numeric_readout=-2.95
compound="CC(C)(C#N)c1cc(Cn2cncn2)cc(C(C)(C)C#N)c1 [Anastrozole] (max concentration tested 10000 nM)" assayed_system="normal NK cells expanded with K562-aAPC" measure_name="percent inhibition of viability" units_text=% numeric_readout=-3.07
compound="CNCc1ccc(-c2[nH]c3cc(F)cc4c3c2CCNC4=O)cc1 [Rucaparib] (max concentration tested 10000 nM)" assayed_system="normal NK cells expanded with K562-aAPC" measure_name="percent inhibition of viability" units_text=% numeric_readout=-4.01
compound="Cc1ccc(NC(=O)c2ccc(CN3CC[C@H](N(C)C)C3)c(C(F)(F)F)c2)cc1Nc1nccc(-c2cncnc2)n1 [Bafetinib] (max concentration tested 1000 nM)" assayed_system="normal NK cells expanded with K562-aAPC" measure_name="percent inhibition of viability" units_text=% numeric_readout=-5.16
compound="CNC(=O)c1ccc(C)c(-n2c(C)cc(OCc3ccc(F)cc3F)c(Br)c2=O)c1 (max concentration tested 1000 nM)" assayed_system="normal NK cells expanded with K562-aAPC" measure_name="percent inhibition of viability" units_text=% numeric_readout=-8.5
compound="COc1ccc(-c2ccc3c(N4CCOC[C@@H]4C)nc(N4CCOC[C@@H]4C)nc3n2)cc1CO [AZD8055] (max concentration tested 10000 nM)" assayed_system="normal NK cells expanded with K562-aAPC" measure_name="percent inhibition of viability" units_text=% numeric_readout=6.73
compound="COc1ccc(-c2nc(N3CCOCC3)c3sc(CN(C)c4ncc(C(=O)NO)cn4)cc3n2)cn1 [CUDC-907] (max concentration tested 10000 nM)" assayed_system="normal NK cells expanded with K562-aAPC" measure_name="percent inhibition of viability" units_text=% numeric_readout=10.6
